Experiment: protein stability index of a GFP-peptide fusion (GPS, HEK-293T) (PSI 1-6); higher = more stable;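 also: 24-mer peptide tiles fused after GFP, lentivirally expressed, FACS-sorted into six equal bins by GFP/DsRed ratio, decoded by Illumina sequencing, PSI is the read-weighted mean bin number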
Conditions: treatment: MLN4924 1 uM, 8 h; c terminus: a fixed tail appended

sequenceData | protein stability index
PLSKSSPATTVTSPNSTPAKTIDT [SNAP91] | 5.18
ILHIMVKVVKGHRPELPPVCRARP [RIPK4] | 2.4
VASLERFSTYTSDKDENKLSEASG [ZC3H15] | 4.96
LTDAYGPPSNFLEIDIFNPQTVGV [SNX12] | 3.19
LEQEEERLSKEWEDSKRWSKMDQL [CHGA] | 4.73
HLIFSYSVWVLRDFPEDGLKIFTE [VPS39] | 3.15
FVEATRKWKVGIPSDPLVSIGALI [ALDH8A1] | 2.16
LPLSPGVLSSTPDHSFSLELGSEV [ATF4] | 3.95
LRLENSSLFSQALKDEEAKVLQLT [CCDC89] | 3.62
PLPESLASLHPSVSPGSPPPPLPN [PLAGL1] | 4.95
HPNSRKSSAGGAKAGQPESRALAL [ZNF8] | 4.77
NQLILTASADRTVIVWDGDTTRQV [WDR41] | 3.12
SRVNNASYCPHCGEESSKAKEVTI [EHMT1] | 3.37
SNVGTAISKKFGDMSYSIRHSISM [TPD52L1] | 2.26
DSVDAQNICHVWHMNVEALPEWIS [RNF180] | 2.62
APLSSRKHVLYVEHRHLNPDTELK [TCF25] | 3.87
PPRGAVERHSDLPPLNPTSWWADL [SPNS1] | 3.34
RQIQEEEDEKQRLQNEVRQLTEKL [SSNA1] | 5.04
HRWPPVWYLKEEDHYQRVKREREK [RHOBTB1] | 4.03
ALQAAAHASVDIKDVLDFYKQWKE [SMG5] | 3.37
IYVKLIEECTDLQKEGEFSTCFTE [OAS1] | 2.26
QQRPHPRSHSREPRAERKCPRIAP [ELOA2] | 4.53
QVHAWQLYYSKKLLDSWFTSTQEK [JAGN1] | 2.29
CSEGFLINEDLKTCSRVDYCLLSD [MATN2] | 3.28
VKEAPAPTPTSLEVSSPPDTTEEV [PDZK1] | 5.49
KTQSELASESEHIPKPQSTGWFGG [MIA2] | 4.43
AKPRATWTLKLDGNLQLDCLAQGW [RTP4] | 2.33
